- runDescription: Pharmacokinetic study in control and DSS-induced UC rats after oral administration of LXF (serum, UPLC-MS/MS)
- Format: in vivo, Sprague-Dawley (SD) rats
- measurementParameters: male, Sprague-Dawley, rat, serum, po, 3.3 g/kg, control group; oral LXF 3.30 g/kg; rat serum; n = 8; mean ± SD
- Experimental: Sixteen male Sprague-Dawley (SD) rats (220 ± 10 g) were provided from the Liaoning Changsheng Biotechnology Co., Ltd (Benxi, China; with license No. of SCXK, 2020-0001). The rats were kept in an environment (22 ± 2°C, relative humidity 50 ± 5%) under a 12-h light-dark cycle with a free diet and water for 3 days. […] Quantification was performed using multiple reaction monitoring (MRM) in the positive ionization mode, and the optimized MRM parameters of the four analytes and IS are listed in Table 1. […]
Listed molecules paired with reported Cmax
A number alone suffices; assume ng/mL.

[[record]]
molecule = "C=C1CC[C@@H]2[C@](C)(CO)[C@H](O)CC[C@@]2(C)[C@@H]1C/C=C1/C(=O)OC[C@H]1O [andrographolide]"
assayendpoint = "Cmax"
readoutvalue = 2310

[[record]]
molecule = "COc1c(O)c(=O)n2c3ccccc3c3ccnc1c32 [4-methoxy-5-hydroxy-canthin-6-one]"
assayendpoint = "Cmax"
readoutvalue = 395

[[record]]
molecule = "C=C1CC[C@@H]2[C@](C)(CO)[C@H](O)CC[C@@]2(C)[C@H]1C/C=C1\\C=COC1=O [dehydroandrographolide]"
assayendpoint = "Cmax"
readoutvalue = 892


Prompt: Request the reported Cmax associated with COC(=O)c1nccc2c1[nH]c1ccccc12 [1-methoxicabony-β-carboline]
Completion: 129
